IC50 reference
# targetSystem: human BRD4 bromodomain II (Homo sapiens, UniProt O60885)
# Construct: human BRD4 bromodomain II [based on Genbank NM_058243, residues 349-460]; host or cells: E. coli
# methodNotes: Bromodomain binding assay (AlphaScreen), BRD4 BDII
# statedConditions: AlphaScreen assay, Table C2; read-out: BRD4 BDII IC50

{"columns": ["molecule", "IC50"],
 "data": [
  ["CC(=O)Nc1ccc(-c2cccc(-c3ccc(NC(C)=O)c(Oc4ccccc4)c3)c2O)cc1F [Example 53]", "> 100 nM"]
]}

In: For the molecule shown here, CN1CCC12CCN(c1cc(-c3cc(F)cc(-c4ccc(-n5ccn(C)c5=O)c(Cl)c4)c3O)ccn1)C2 (stereo not drawn) [Example 642] , give the reported IC50.
Out: 0.01 to 1 nM

In: What do you have for [2H]C([2H])([2H])n1ccn(-c2ccc(-c3cc(F)cc(-c4ccnc(N5CCC[C@H](NC)C5)c4)c3O)cc2Cl)c1=O [Example 456] ?
Out: 0.01 to 1 nM

###

# Test system: human SKM-1 acute myeloid leukemia cells
# methodNotes: SKM-1 antiproliferation cell-based assay (ATPlite)
# statedConditions: Homo sapiens, SKM-1, 96 h, SKM-1 antiproliferation assay, 4 days, Table C2
GI50 reference

Below, 10 compounds whose answers are already recorded.
{"columns": ["compound", "GI50"],
 "data": [
  ["CC(=O)Nc1ccc(-c2cccc(-c3ccnc(N4CC5(CNC5)C4)c3)c2O)cc1F [Example 270]", "300 to 3000 nM"],
  ["Cn1ccn(-c2ccc(-c3cc(F)cc(-c4ccnc(N5CCC(C)(O)C5)c4)c3O)cc2Cl)c1=O (stereo not drawn) [Example 685]", "0.3 to 30 nM"],
  ["C[C@@H]1CN(c2cncc(-c3cccc(-c4ccc(N5CCCC5=O)c(F)c4)c3O)c2)CCN1 [Example 264]", "30 to 300 nM"],
  ["CN1CCN(c2ccc(-c3cccc(-c4ccnc(N5CC6(CNC6)C5)c4)c3O)cc2Cl)C1=O [Example 323]", "30 to 300 nM"],
  ["C[C@@H]1CN(c2cc(-c3cc(F)cc(-c4ccc(-n5ccn(C)c5=O)c(Cl)c4)c3O)cn3ccnc23)CCN1 [Example 584]", "0.3 to 30 nM"],
  ["C[C@@H]1CN(c2cc(-c3cc(F)cc(-c4ccc(N5CCN(C)C5=O)c(Cl)c4)c3O)ccn2)CCN1 [Example 359]", "30 to 300 nM"],
  ["O=C1CCCN1c1ccc(-c2cc(F)cc(-c3ccnc(N4CC5(CNC5)C4)c3)c2O)cc1Cl [Example 324]", "300 to 3000 nM"],
  ["CC(=O)Nc1ccc(-c2cccc(-c3cccc(N4CC5CNC(C5)C4)c3)c2O)cc1F (stereo not drawn) [Example 206]", "30 to 300 nM"],
  ["Cn1ccn(-c2ccc(-c3cc(F)cc(-c4cccc(C#CC(C)(C)O)c4)c3O)cc2Cl)c1=O [Example 772]", "300 to 3000 nM"],
  ["CC(=O)Nc1ccc(-c2cccc(-c3ccnc(N4CCN[C@H](C)C4)c3)c2O)cc1F [Example 255]", "30 to 300 nM"]
]}

In: For the compound shown here, Cc1cc(-c2cc(F)cc(-c3ccnc(N4CCNCC4)c3)c2O)ccc1N1CCN(C)C1=O [Example 380] , give the reported GI50.
Out: 30 to 300 nM

In: What do you have for CN1CCN(c2ccc(-c3cccc(-c4cncc(N5CCNCC5)c4)c3O)cc2Cl)C1=O [Example 293] ?
Out: 30 to 300 nM

In: What do you have for CC(=O)Nc1ccc(-c2cccc(-c3ccc(C(F)(F)F)c(N4CCNCC4)c3)c2O)cc1F [Example 336, acetate] ?
Out: 300 to 3000 nM

In: What do you have for CN1CCN(c2c(F)cc(-c3cc(F)cc(-c4ccnc(N5CCNCC5)c4)c3O)cc2F)C1=O [Example 384] ?
Out: 300 to 3000 nM

In: What do you have for C[C@@H]1CN(c2cc(-c3cc(F)cc(-c4ccc(-n5ccn(C)c5=O)c(Cl)c4)c3O)ccc2F)CCN1 [Example 677] ?
Out: 0.3 to 30 nM

In: What do you have for COc1ncc(-c2cc(F)cc(-c3ccc(-n4ccn(C)c4=O)c(Cl)c3)c2O)cc1N1CCN(C(C)(C)C2CC2)CC1 [Example 847] ?
Out: 0.3 to 30 nM

In: What do you have for Cn1ccn(-c2ccc(-c3cc(F)cc(-c4ccnc(N5CCC(C)(C(N)=O)C5)c4)c3O)cc2Cl)c1=O (stereo not drawn) [Example 773] ?
Out: 30 to 300 nM

In: What do you have for O=c1ccccn1-c1ccc(-c2cc(F)cc(-c3ccnc(N4CCNCC4)c3)c2O)cc1Cl [Example 502] ?
Out: ≥ 3000 nM

In: What do you have for Cn1ccn(-c2ccc(-c3cc(F)cc(-c4ccnc(N5CCN(CC(C)(C)C#N)CC5)c4)c3O)cc2Cl)c1=O [Example 652] ?
Out: 30 to 300 nM

In: What do you have for Cn1ccn(-c2ccc(-c3cc(F)cc(-c4ccnc(N5CCNC(C)(C)C5)c4)c3O)cc2Cl)c1=O [Example 563] ?
Out: 0.3 to 30 nM

In: What do you have for Cn1ccn(-c2ccc(-c3cc(F)cc(-c4cncc(N5CC[C@H](N)C5)c4)c3O)cc2Cl)c1=O [Example 484] ?
Out: 0.3 to 30 nM

###

# System: human SKM-1 acute myeloid leukemia cells
# methodNotes: SKM-1 antiproliferation cell-based assay (ATPlite)
# statedConditions: Homo sapiens, SKM-1, 96 h, SKM-1 antiproliferation assay, 4 days, Table C2
measuredMetric: GI50

{"columns": ["compound", "GI50"],
 "data": [
  ["Cn1ccn(-c2ccc(-c3cc(F)cc(-c4ccnc(N5CCCNCC5)c4)c3O)cc2Cl)c1=O", "0.3 to 30 nM"],
  ["CC(=O)Nc1ccc(-c2cccc(-c3ccnc(C#CCCN)c3)c2O)cc1F", "300 to 3000 nM"],
  ["Cc1ccc(-c2cc(F)cc(-c3ccc(-n4ccn(C)c4=O)c(Cl)c3)c2O)cc1N1CC[C@@](C)(O)C1", "30 to 300 nM"]
]}

Note: attention shifts to another entry.
In: For the compound shown here, Cn1cc(-c2cc(F)cc(-c3ccc(-n4ccn(C)c4=O)c(Cl)c3)c2O)cc(N2CCC(C)(N)C2)c1=O (stereo not shown) , give the reported GI50.
Out: 0.3 to 30 nM

###

# Test system: human SKM-1 acute myeloid leukemia cells
# methodNotes: SKM-1 antiproliferation cell-based assay (ATPlite)
# statedConditions: Homo sapiens, SKM-1, 96 h, SKM-1 antiproliferation assay, 4 days, Table C2
measuredMetric: GI50

Below, 3 molecules whose answers are already recorded.
{"columns": ["molecule", "GI50"],
 "data": [
  ["Cn1ccn(-c2ccc(-c3cc(F)cc(-c4ccnc(N5CCN(C[C@H](O)CO)CC5)c4)c3O)cc2Cl)c1=O", "0.3 to 30 nM"],
  ["Cn1ccn(-c2ccc(-c3cc(F)cc(-c4ccnc(N5CCN[C@H](C(C)(C)O)C5)c4)c3O)cc2Cl)c1=O", "0.3 to 30 nM"],
  ["CC(=O)Nc1ccc(-c2cccc(-c3cc(C(N)=O)nc(N4CCNCC4)c3)c2O)cc1F", "300 to 3000 nM"]
]}

In: For the molecule shown here, Cn1ccn(-c2ccc(-c3cc(F)cc(-c4cc(N5CCNCC5)c5cc[nH]c5c4)c3O)cc2Cl)c1=O , give the reported GI50.
Out: 0.3 to 30 nM

In: What do you have for CCc1cc(-c2cc(F)cc(-c3ccc(-n4ccn(C)c4=O)c(Cl)c3)c2O)cc(N2CCN(C(C)C)CC2)n1 ?
Out: 0.3 to 30 nM

In: What do you have for CN1CCN(c2ccc(-c3cc(F)cc(-c4cnc(CCO)c(N5CCNCC5)c4)c3O)cc2Cl)C1=O ?
Out: 30 to 300 nM

In: What do you have for CN1CCN(c2ccc(-c3cc(F)cc(-c4cnc(-c5cn[nH]c5)c(N5CCNCC5)c4)c3O)cc2Cl)C1=O ?
Out: 300 to 3000 nM

In: What do you have for Cn1ccn(-c2ccc(-c3cc(F)cc(-c4ccnc(N5CC6NCCOC6C5)c4)c3O)cc2Cl)c1=O (stereo not drawn) ?
Out: 0.3 to 30 nM

In: What do you have for CC(C)N1CCN(c2cc(-c3cc(F)cc(-c4ccc(-n5ccn(C)c5=O)c(Cl)c4)c3O)cn3ccnc23)CC1 ?
Out: 0.3 to 30 nM

In: What do you have for Cn1cc(-c2cc(F)cc(-c3ccc(-n4ccn(C)c4=O)c(Cl)c3)c2O)cc(N2CCC(N)CC2)c1=O ?
Out: 300 to 3000 nM

In: What do you have for Cn1ccn(-c2ccc(-c3cc(F)cc(-c4cnc(C(F)(F)F)c(N5CCN(C(C)(C)C)CC5)c4)c3O)cc2Cl)c1=O ?
Out: 30 to 300 nM

In: What do you have for CN1CCN(c2ccc(-c3cc(F)cc(-c4ccnc(N5CCC[C@H](N)C5)c4)c3O)cc2Cl)C1=O ?
Out: 30 to 300 nM
